Sourced from patent US12252481B2

Consider the following compounds; for each one, report its IC50.
target: human cathepsin L (Homo sapiens)
Sequence (P07711 114-333): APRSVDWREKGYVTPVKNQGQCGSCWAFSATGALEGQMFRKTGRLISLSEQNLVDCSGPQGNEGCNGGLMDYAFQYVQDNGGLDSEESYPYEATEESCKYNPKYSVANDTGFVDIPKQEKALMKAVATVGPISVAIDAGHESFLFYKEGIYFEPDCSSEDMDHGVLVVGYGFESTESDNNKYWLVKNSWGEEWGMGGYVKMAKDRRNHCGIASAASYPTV

>  <Compound>
O=C(NC1CC1)C(=O)C(C[C@@H]1CCNC1=O)NC(=O)[C@@H]1[C@@H]2[C@H](CN1C(=O)c1cc3c(Cl)cc(Cl)cc3[nH]1)[C@@H]1C=C[C@H]2C1 (stereo partly drawn)

>  <IC50>
≥ 10 µM

$$$$
>  <Compound>
CC(C)(C)[C@H](NC(=O)C(F)(F)F)C(=O)N1C[C@H]2[C@@H]([C@H]1C(=O)N[C@H](C#N)C[C@@H]1CC3(CC3)NC1=O)[C@H]1C=C[C@@H]2C1

>  <IC50>
≥ 10 µM

$$$$

Now for the compound whose IC50 we want.
Kindly state the measured IC50 obtained for CC(C)(C)[C@H](NC(=O)[C@@H]1CC1(F)F)C(=O)N1C[C@H]2[C@@H]([C@H]1C(=O)N[C@H](C#N)C[C@@H]1CCNC1=O)[C@H]1C=C[C@@H]2C1 with human cathepsin L (Homo sapiens).
≥ 10 µM

----------
biological target: SARS-Cov-2 3CLpro (Severe acute respiratory syndrome coronavirus 2, UniProt P0DTD1); construct: 3CLpro and HRV3C was added using a Multidrop Combi; test: biochemical; conditions: 3CLpro, 30 mins preincubation, SAMDI-MS; read-out: SARS-Cov-2 IC50 (class)
pIC50: −log10 of the molar value.
Assay metric: pIC50

Known results for compounds:
>  <Compound>
C[C@H]1[C@H]2[C@@H]([C@@H](C(=O)N[C@H](C#N)C[C@@H]3CCNC3=O)N1C(=O)[C@@H](NC(=O)C(F)(F)F)C(C)(C)C)[C@H]1C=C[C@@H]2C1

>  <pIC50>
> 7.70

$$$$
>  <Compound>
CC(C)(C)[C@H](NC(=O)C(F)(F)F)C(=O)N1C[C@H]2[C@@H]([C@H]1C(=O)NC(C#N)Cc1ccc[nH]c1=O)[C@H]1C=C[C@@H]2C1 (single isomer, unassigned)

>  <pIC50>
6.70 to 7.70

$$$$
>  <Compound>
CC(C)(C)[C@H](NC(=O)C(F)(F)F)C(=O)N1C[C@@H]2[C@@H]3CC[C@@H](C3)[C@@H]2[C@H]1C(=O)N[C@H](C#N)C[C@H]1Cn2nccc2NC1=O (relative stereo) [Compound 17b]

>  <pIC50>
> 7.70

$$$$

Below is a list of compounds. For each, state its recorded pIC50.
1. N#C[C@H](C[C@@H]1CCNC1=O)NC(=O)[C@@H]1[C@@H]2[C@H](CN1C(=O)[C@@H]1C[C@]13CCCc1ccccc13)[C@@H]1C=C[C@H]2C1 (single isomer, unassigned)
2. CC(C)(C)[C@H](NC(=O)C(F)(F)C(F)(F)F)C(=O)N1C[C@H]2[C@@H]([C@H]1C(=O)N[C@H](C#N)C[C@@H]1OCCNC1=O)[C@H]1C=C[C@@H]2C1
3. CC(C)(C)[C@H](NC(=O)C(F)F)C(=O)N1C[C@H]2[C@@H]([C@H]1C(=O)N[C@H](C#N)C[C@@H]1CCNC1=O)[C@H]1C=C[C@@H]2C1
4. CC(C)(C)[C@H](NC(=O)C(F)(F)F)C(=O)N1C[C@H]2[C@@H]([C@H]1C(=O)N[C@H](C#N)C[C@@H]1OCCNC1=O)[C@H]1C=C[C@@H]2C1(F)F
5. CC(C)(C)[C@H](NC(=O)C1COC1)C(=O)N1C[C@H]2[C@@H]([C@H]1C(=O)N[C@H](C#N)C[C@@H]1CCNC1=O)[C@H]1C=C[C@@H]2C1
6. CC(C)(C)[C@H](NC(=O)C(F)(F)F)C(=O)N1C[C@@H]2[C@H]3CC[C@H](CC3)[C@@H]2[C@H]1C(=O)N[C@H](C#N)C[C@@H]1CCNC1=O [Compound 71b]

1. 6.70 to 7.70
2. > 7.70
3. > 7.70
4. > 7.70
5. > 7.70
6. > 7.70

Kindly state the measured pIC50 obtained for [2H][C@@H]1[C@H]([2H])[C@@H]2C[C@H]1[C@H]1[C@@H]2CN(C(=O)[C@@H](NC(=O)C(F)(F)F)C(C)(C)C)[C@@H]1C(=O)N[C@H](C#N)C[C@@H]1CCNC1=O with SARS-Cov-2 3CLpro (Severe acute respiratory syndrome coronavirus 2, UniProt P0DTD1).
> 7.70
